- tested-on: T1, Histidine-tagged human 4-1BB protein (h4-1BB-His) (human, UniProt Q07011 24-186)
- T1 construct: not shown: histidine tag
- measurement-protocol: SPR (Biacore T200), antibody on Protein A chip, h4-1BB-His injected;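 note: dissociation phase followed for 300 s, Kd derived as koff divided by kon from the kinetic fit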
measured-parameter: pKd
Remember the convention: pKd equals -log10 of concentration in molar.

Let me know recorded pKd for 6A5-H1K3-IgG2 (antibody, V domains shown, humanized) VH: QVQLVQSGAEVKKPGSSVKLSCKASGYTFSSYWINWVRQAPGQGLEWMGNIYPSDSYTNYNQKFKDRVTLTVDKSTSTAYMELSSLRSEDTAVYYCTRTWEFYYDSVFDYWGQGTLVTVSS VL: DIQMTQSPSSLSASLGERVTITCKASQDINSYLSWFQQKPGKAPKTLIYRANRLVDGVPSRFSGSGSGQDFTLTISSLQPEDIATYYCLQYDELPPTFGGGTKVEIK , thanks. 9.67

Return value of pKd for input 5F9-H1K2-IgG4 (antibody, V domains shown, humanized; also called 30-5F9-H1K2-IgG4) VH: QVQLQESGPGLVKPSETLSLTCTVSGFSLTTYDISWVRQPPGKGLEWIGVIWTGGGTNYNSSFMSRVTISKDTSKNQVSLKLSSVTAADTAVYYCERVDYWGQGTTVTVSS VL: DVVMTQSPLSLPVTLGQPASISCRSSQSLVHSNGNTYLHWFQQRPGQSPKLLIYKVSNRFSGVPDRFSGSGSGTAFTFKISRVEAEDVGVYYCSQNTHVPWTFGGGTKVEIK , no commentary. 7.92

# return recorded pKd for input 6A5-H3K1-IgG2 (antibody, V domains shown, humanized) VH: QVQLVQSGAEVKKPGSSVKLSCKASGYTFSSYWINWVKQAPGQGLEWIGNIYPSDSYTNYNQKFKDKATLTVDKSTSTAYMELSSLRSEDTAVYYCTRTWEFYYDSVFDYWGQGTTLTVSS VL: DIQMTQSPSSLSASLGERVTITCKASQDINSYLSWYQQKPGKAPKLLIYRANRLVDGVPSRFSGSGSGQDFTLTISSLQPEDIATYYCLQYDELPPTFGGGTKVEIK 8.56
